B1: RHOBTB3 (parent)
chain: GGADIIVIKYNVNDKFSFHEVKDN

Variants of: B1
test-protocol: protein stability index of a GFP-peptide fusion (GPS, HEK-293T) (PSI 1-6); higher = more stable;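 also: lentivirally expressed fusions sorted by FACS into six bins by GFP to DsRed ratio, PSI derived from sequencing read proportions per bin multiplied by bin number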
condition-set: c terminus: a fixed tail appended
Classify by measured protein stability index: satisfied if it is equal to or exceeds 3, not satisfied if it is smaller.

Determine whether measured protein stability index meets or exceeds 3 for GGADIIVIKYNVNDKFSFHCVKDN [E20C]
satisfied

Determine whether measured protein stability index meets or exceeds 3 for GGADIIVIKYNVNAKFSFHEVKDN [D14A]
satisfied

Determine whether measured protein stability index meets or exceeds 3 for GGADIIVIKYNVNFKFSFHEVKDN [D14F]
satisfied

Determine whether measured protein stability index meets or exceeds 3 for GGADIIVIKYNVNDKFSFHSVKDN [E20S]
not satisfied

Determine whether measured protein stability index meets or exceeds 3 for PGADIIVIKYNVNDKFSFHEVKDN [G1P]
not satisfied

Determine whether measured protein stability index meets or exceeds 3 for GGADIIVIKYNVVDKFSFHEVKDN [N13V]
satisfied

Determine whether measured protein stability index meets or exceeds 3 for GGADIIKIKYNVNDKFSFHEVKDN [V7K]
not satisfied

Determine whether measured protein stability index meets or exceeds 3 for GGADIIVIKYNVNDKFSFHEVKHN [D23H]
satisfied

Determine whether measured protein stability index meets or exceeds 3 for GGADIIVIKYNVNDKFSFHTVKDN [E20T]
not satisfied

Determine whether measured protein stability index meets or exceeds 3 for GGADNIVIKYNVNDKFSFHEVKDN [I5N]
satisfied

Determine whether measured protein stability index meets or exceeds 3 for GGADIIVIKYNVDDKFSFHEVKDN [N13D]
not satisfied
